The measured values listed here are drawn from patent US9840513B2.

Target: F508delCFTR cell surface expression in CFBE41o-F508delCFTR-HRP cells (Homo sapiens, UniProt P13569, DEL508-508)
Construct: fused on or other part: Horseradish peroxidase (HRP) reporter inserted in the fourth exofacial (extracellular) loop of CFTR; expression is doxycycline-inducible
Sequence (P13569 with tags, fused parts or gaps DEL508-508 limits assumed): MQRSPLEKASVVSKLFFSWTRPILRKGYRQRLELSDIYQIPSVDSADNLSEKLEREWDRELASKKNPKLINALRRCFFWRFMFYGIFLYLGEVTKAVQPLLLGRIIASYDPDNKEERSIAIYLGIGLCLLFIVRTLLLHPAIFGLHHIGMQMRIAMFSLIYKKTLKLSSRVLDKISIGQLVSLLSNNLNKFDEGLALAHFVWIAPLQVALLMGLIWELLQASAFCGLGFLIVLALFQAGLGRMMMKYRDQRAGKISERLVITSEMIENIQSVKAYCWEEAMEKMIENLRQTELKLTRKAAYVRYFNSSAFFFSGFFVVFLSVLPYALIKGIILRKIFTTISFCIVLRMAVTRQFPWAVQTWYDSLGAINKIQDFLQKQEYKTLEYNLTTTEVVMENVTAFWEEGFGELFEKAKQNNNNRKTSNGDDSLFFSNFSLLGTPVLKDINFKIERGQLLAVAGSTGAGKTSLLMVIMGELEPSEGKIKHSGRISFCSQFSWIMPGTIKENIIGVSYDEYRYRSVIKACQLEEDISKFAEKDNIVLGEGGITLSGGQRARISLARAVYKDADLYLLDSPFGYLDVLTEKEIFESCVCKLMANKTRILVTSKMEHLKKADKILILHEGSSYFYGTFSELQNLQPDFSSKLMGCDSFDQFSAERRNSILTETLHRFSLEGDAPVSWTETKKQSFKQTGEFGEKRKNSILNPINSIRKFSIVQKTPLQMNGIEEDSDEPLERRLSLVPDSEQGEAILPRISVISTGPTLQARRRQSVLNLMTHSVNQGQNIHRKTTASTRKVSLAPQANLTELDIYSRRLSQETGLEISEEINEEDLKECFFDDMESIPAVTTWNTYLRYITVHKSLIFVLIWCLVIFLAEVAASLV
Sequence (P13569 919-1480 limits assumed, stated change not applied): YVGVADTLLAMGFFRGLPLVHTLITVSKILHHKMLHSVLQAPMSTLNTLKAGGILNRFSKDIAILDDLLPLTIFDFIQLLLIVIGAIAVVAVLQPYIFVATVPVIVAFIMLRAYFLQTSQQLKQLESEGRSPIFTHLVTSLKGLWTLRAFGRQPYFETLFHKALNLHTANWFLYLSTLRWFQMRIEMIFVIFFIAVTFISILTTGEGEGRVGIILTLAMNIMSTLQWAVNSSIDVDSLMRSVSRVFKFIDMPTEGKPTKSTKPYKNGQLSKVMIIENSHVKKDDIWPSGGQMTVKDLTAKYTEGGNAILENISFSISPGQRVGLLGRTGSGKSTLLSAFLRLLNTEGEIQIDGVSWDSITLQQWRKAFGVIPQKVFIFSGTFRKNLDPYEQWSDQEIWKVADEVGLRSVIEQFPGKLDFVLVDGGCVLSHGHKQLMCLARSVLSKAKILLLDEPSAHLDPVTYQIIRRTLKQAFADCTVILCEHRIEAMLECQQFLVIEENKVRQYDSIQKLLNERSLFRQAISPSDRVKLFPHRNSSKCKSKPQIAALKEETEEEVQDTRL
Assay: Cell Surface Expression-Horse Radish Peroxidase (CSE-HRP) Assay
Conditions: CFBE41o-F508delCFTR-HRP cells, 18-24 hours at 33° C., 8-point curve, highest concentration 20 μM
readoutType: EC50 (nM)

| molecule | readoutType | readoutNumber |
| --- | --- | --- |
| COc1ccc2c(c1)O[C@@H](c1ccc(C(=O)O)cc1)C[C@H]2NC(=O)[C@@]1(C)CCc2c1ccc1c2OCO1 [Example 42] | EC50 | 1060 |
| C[C@]1(C(=O)Nc2cccc(N3CCCC3)n2)COc2cc3c(cc21)OC(F)(F)O3 [Example 118] | EC50 | 1220 |
| COc1ccc2c(c1)O[C@@H](c1ccc(C(=O)N3CCOCC3CO)cn1)C[C@H]2NC(=O)[C@@]1(C)COc2cc3c(cc21)OC(F)(F)O3 (stereo partly drawn) [Example 240] | EC50 | 60 |
| COc1ccc2c(c1)O[C@H]([C@H]1CC[C@H](C(=O)O)CC1)C[C@@H]2NC(=O)[C@@]1(C)COc2cc3c(cc21)OC(F)(F)O3 [Example 154] | EC50 | 915 |

A: CCOC(=O)[C@H]1CC[C@@H]([C@H]2C[C@@H](NC(=O)[C@@]3(C)COc4cc5c(cc43)OC(F)(F)O5)c3ccc(OC(F)(F)F)cc3O2)CC1 [Example 157]
B: COc1ccc2c(c1)O[C@@H]([C@H]1CC[C@H](C(=O)O)CC1)C[C@H]2NC(=O)[C@@]1(C)COc2c1cc1c(c2I)OC(F)(F)O1 [Example 291]
Lookup: Input pair: A , B . Output: entry with lower EC50. Returns: label corresponding to the selected item.
Found: A

====

Biological target: F508delCFTR cell surface expression in CFBE41o-F508delCFTR-HRP cells (Homo sapiens, UniProt P13569, DEL508-508)
Construct: fused on or other part: Horseradish peroxidase (HRP) reporter inserted in the fourth exofacial (extracellular) loop of CFTR; expression is doxycycline-inducible
Experiment: Cell Surface Expression-Horse Radish Peroxidase (CSE-HRP) Assay
Settings: CFBE41o-F508delCFTR-HRP cells, 18-24 hours at 33° C., 8-point curve, highest concentration 20 μM
readoutType: EC50 (nM)

Worked set:
| compound | readoutType | readoutNumber |
| --- | --- | --- |
| CC1(C)CCN(c2cccc(NC(=O)[C@@]3(C)COc4cc5c(cc43)OC(F)(F)O5)n2)C1 [Example 101] | EC50 | 870 |
| COC(=O)c1ccc([C@H]2C[C@@H](NC(=O)C3(C)COc4cc5c(cc43)OC(F)(F)O5)c3ccc(OC)cc3O2)cc1 (stereo partly shown) [Example 15] | EC50 | 150 |
| Cc1ccc(NC(=O)C2(C)COc3cc4c(cc32)OC(F)(F)O4)nc1-c1cccc(C(=O)O)c1 (stereo not shown) [Example 2] | EC50 | 300 |
| C[C@]1(C(=O)N[C@H]2C[C@@H](c3ccc(C(=O)O)cc3)O[C@@H](c3ccccc3)C2)COc2cc3c(cc21)OC(F)(F)O3 (single isomer, unassigned) [Example 45] | EC50 | 920 |
| CC1(c2cc3cc(NC(=O)[C@@]4(C)COc5cc6c(cc54)OC(F)(F)O6)c(F)cc3n2C[C@@H](O)CO)COC1 [Example 171] | EC50 | 660 |

I: CC(O)CNC(=O)[C@H]1CC[C@H]([C@H]2C[C@@H](NC(=O)[C@@]3(C)COc4cc5c(cc43)OC(F)(F)O5)c3ccc(OC(F)(F)F)cc3O2)CC1 (stereo partly shown) [Example 258]
II: C[C@]1(C(=O)Nc2cc(C3CC3)nn(-c3cccc(C(=O)O)c3)c2=O)COc2cc3c(cc21)OC(F)(F)O3 [Example 29]
III: COc1ccc2c(c1)O[C@@H]([C@H]1CC[C@H](C(=O)O)CC1)C[C@H]2NC(=O)[C@@]1(C)CCc2cc3c(cc21)OC(F)(F)O3 [Example 168]
IV: C[C@]1(C(=O)Nc2cc3cc(C4(CO)CCC4)n(C[C@@H](O)CO)c3cc2F)COc2cc3c(cc21)OC(F)(F)O3 [Example 134]
V: CC1(C(=O)Nc2cccc(-c3ccccc3)c2)COc2cc3c(cc21)OC(F)(F)O3 (stereo not shown) [Example 54]
Lookup: Please put the entries in order of rising EC50. Put the labels in the order asked and list them.
Found: I, III, IV, II, V

====

Target: F508delCFTR cell surface expression in CFBE41o-F508delCFTR-HRP cells (Homo sapiens, UniProt P13569, DEL508-508)
Construct: fused on or other part: Horseradish peroxidase (HRP) reporter inserted in the fourth exofacial (extracellular) loop of CFTR; expression is doxycycline-inducible
Experiment: Cell Surface Expression-Horse Radish Peroxidase (CSE-HRP) Assay
Conditions: CFBE41o-F508delCFTR-HRP cells, 18-24 hours at 33° C., 8-point curve, highest concentration 20 μM
readoutType: EC50 (nM)

A: COC(=O)c1ccc(-c2cccc(NC(=O)[C@@]3(C)COc4cc5c(cc43)OC(F)(F)O5)n2)cc1
B: COc1ccc2c(c1)O[C@@H](c1ccc(C(C)(C)O)cn1)C[C@H]2NC(=O)[C@@]1(C)COc2cc3c(cc21)OC(F)(F)O3
C: C[C@]1(C(=O)N[C@@H]2C[C@H]([C@H]3CC[C@@H](C(=O)O)CC3)Oc3cc(OC(F)(F)F)ccc32)COc2cc3c(cc21)OC(F)(F)O3
Lookup: Hi! Can you put these in order of EC50, lowest number first? Put the labels in the order asked and list them.
Found: B, C, A
(B: 30 nM, C: 712 nM, A: 1180 nM)

====

Target: F508delCFTR cell surface expression in CFBE41o-F508delCFTR-HRP cells (Homo sapiens, UniProt P13569, DEL508-508)
Construct: fused on or other part: Horseradish peroxidase (HRP) reporter inserted in the fourth exofacial (extracellular) loop of CFTR; expression is doxycycline-inducible
Experiment: Cell Surface Expression-Horse Radish Peroxidase (CSE-HRP) Assay
Assay type: cell-based
Conditions: maximum at any tested concentration, normalized to on-plate positive control (3 μM)
readoutType: Maximum % activity (%)

| compound | readoutType | unitOfMeasure | readoutNumber |
| --- | --- | --- | --- |
| COc1ccc2c(c1)O[C@@H](c1ccc(C(C)(C)O)cn1)C[C@H]2NC(=O)[C@@]1(C)COc2cc3c(cc21)OC(F)(F)O3 [Example 181] | Maximum % activity (%) | % | 129 |
| CCCN(CCO)C(=O)[C@H]1CC[C@H]([C@H]2C[C@@H](NC(=O)[C@@]3(C)COc4cc5c(cc43)OC(F)(F)O5)c3ccc(OC(F)(F)F)cc3O2)CC1 [Example 263] | Maximum % activity (%) | % | 167 |
| COc1ccc2c(c1)O[C@@H](c1ccc(C(=O)NC3CCNC(=O)C3)cn1)C[C@H]2NC(=O)[C@@]1(C)COc2cc3c(cc21)OC(F)(F)O3 (stereo partly shown) [Example 232] | Maximum % activity (%) | % | 117 |

a: C[C@]1(C(=O)Nc2cc(-c3ccccc3)nn(C[C@H](O)[C@H](O)CO)c2=O)COc2cc3c(cc21)OC(F)(F)O3 [Example 105]
b: Cc1ccc(NC(=O)[C@@]2(C)COc3cc4c(cc32)OC(F)(F)O4)nc1-c1cccc(C(=O)O)c1 [Example 6]
c: C[C@]1(C(=O)Nc2cc(-c3ccccc3)nn(C[C@@H](O)CO)c2=O)COc2cc3c(cc21)OC(F)(F)O3 [Example 27]
Lookup: Order the records by Maximum % activity (%), with each subsequent value no larger than the one before. Put the labels in the order asked and list them.
Found: b, c, a

====

Target: F508delCFTR cell surface expression in CFBE41o-F508delCFTR-HRP cells (Homo sapiens, UniProt P13569, DEL508-508)
Construct: fused on or other part: Horseradish peroxidase (HRP) reporter inserted in the fourth exofacial (extracellular) loop of CFTR; expression is doxycycline-inducible
Assay: Cell Surface Expression-Horse Radish Peroxidase (CSE-HRP) Assay
Settings: CFBE41o-F508delCFTR-HRP cells, 18-24 hours at 33° C., 8-point curve, highest concentration 20 μM
pEC50: −log10 of the molar value.
readoutType: pEC50

a: C[C@]1(C(=O)N[C@@H]2C[C@H]([C@H]3CC[C@H](C(=O)O)CC3)Oc3cc(OC(F)(F)F)ccc32)CCc2cc3c(cc21)OC(F)(F)O3
b: Cc1cc(C(=O)O)ccc1-c1cccc(NC(=O)[C@@]2(C)COc3cc4c(cc32)OC(F)(F)O4)n1
Lookup: pEC50 comparison. Which is larger, a or b ? Returns: label corresponding to the selected item.
Found: a
(a: 7.28, b: 5.84)
